Numbers sourced from patent US8815950B2.

test: Solubility of levodopa in citrate buffer at varying pH and buffer strength; assay type: physicochemical; details: pH 2.5, aqueous buffer, Citrate buffer 0.45M pH2.5, read-out: Conc (levodopa solubility)
measured-endpoint: solubility
Param answer (str): number followed by unit.

Any idea what solubility was measured for N[C@@H](Cc1ccc(O)c(O)c1)C(=O)O ?
5820 µg/mL

* * *

experiment: Solubility of levodopa in citrate buffer at varying pH and buffer strength; format: physicochemical; conditions: pH 5, aqueous buffer, Citrate buffer 0.45M pH5.0, read-out: Conc (levodopa solubility)
measured-endpoint: solubility (µg/mL)
Enter your answer as a number in µg/mL; do not include the unit.

For the compound N[C@@H](Cc1ccc(O)c(O)c1)C(=O)O , what solubility is on record?
4150
